These measurements were taken from PubChem BioAssay.

Test system: Human papillomavirus type 1a E7 protein (residues 1-88)
assay_details: HPV1a E7 small-molecule binders, primary screen, biochemical, small-molecule microarray, residues 1-88, 635 nm (AID 1129)
applied_conditions: small-molecule microarray binding, fluorescence 635 nm; higher = more signal
experimental_endpoint: composite z-score
Number only, no unit.

Below, 6 compounds whose answers are already recorded.
C=C(COC)C(=O)CC[C@H](OC(=O)c1cccnc1)c1ccc(OCCO)cc1: 0.355
CC(C)N1C(=O)c2ccccc2[C@](C)(C(=O)NCC(F)(F)F)[C@@H]1c1ccc(CO)cc1: -0.432
COCCOC(=O)N1C(=O)[C@@]2(c3cc(C#CC4(O)CCCCCC4)ccc31)[C@H](c1ccc(O)cc1)N1[C@H](c3ccccc3)[C@H](c3ccccc3)OC(=O)[C@H]1[C@@H]2C(=O)N1CCCCCCC1: 1.19
CO[C@H]1O[C@H](CO)[C@@H](OC(=O)Nc2ccccc2)[C@H](OC(=O)Nc2ccccc2)[C@H]1OC(=O)Nc1ccccc1: 1.26
COC(=O)[C@@]1(Cc2ccccc2)[C@H]2c3cc(C(=O)N(C)C)n(Cc4ccc(S(C)(=O)=O)cc4)c3C[C@H]2CN1C(=O)c1ccccc1: 0.884
CC1CC/C=C\[C@H]2OC34C=CCN(Cc5ccccc5)C(=O)[C@H]3N(CCCCCCO)C(=O)[C@@H]4C2C(=O)O1 (some centres undefined): -0.415

**Q:** Given the compound C#CCN1[C@@H](Cc2ccccc2)C(=O)O[C@H](Cc2ccccc2)[C@@H]1/C=C/C1CC1 , what is its reported composite z-score?
**A:** 1.01

**Q:** Endpoint output: composite z-score of COC(=O)C(CC#Cc1ccc2c(c1)[C@]1(C(=O)N2)[C@H](C(=O)N2CCc3cc(OC)c(OC)cc3C2)[C@H]2C(=O)O[C@H](c3ccccc3)[C@H](c3ccccc3)N2[C@@H]1c1ccccc1OCCO)C(=O)OC . Value?
**A:** 1.19

**Q:** // lookup composite z-score for COCCn1c(C(=O)N(C)C)cc2c1C[C@H]1CN(C(=O)c3ccccc3)[C@@](Cc3ccc(OC)cc3)(C(=O)OC)[C@@H]21
**A:** 1.04

**Q:** So what's the measured composite z-score for this one? C=CCC(OC(C)=O)[C@@H]1[C@@H](N(Cc2cccc3ccccc23)C(=O)Cc2ccc(OC)cc2)c2cc(OCCCO)ccc2N1C(=O)Cc1ccc2ccccc2c1 (some centres undefined)
**A:** -0.609

**Q:** Look at this compound and give its reported composite z-score. COc1ccc([Si](C)(C)[C@@H]2[C@@H](CC(=O)N3Cc4ccccc4C[C@H]3CO)O[C@]3(C(=O)N(Cc4ccc(N5CCOC5=O)cc4)c4ccccc43)[C@H]2C)cc1
**A:** 0.986

**Q:** # composite z-score lookup, item C=C(CCCC)/C(=C/C[C@@H](OC(C)=O)c1ccc(CO)o1)c1cnc2ccccc2c1
**A:** 1.21

**Q:** Sample CCOC(=O)C1=CC[C@@H](c2ccc(OC)cc2)N(S(=O)(=O)c2ccc(C)cc2)[C@H]1CC — what was its composite z-score?
**A:** 1.22

**Q:** Param item = C=CCOC(=O)[C@@H]1[C@H]2C(=O)O[C@H](c3ccccc3)[C@H](c3ccccc3)N2[C@H](c2ccc(OCCOC(=O)[C@H]3C[C@H]4C(=O)N[C@@H](CCCCN(C)C)C(=O)N4[C@H]3c3ccc(O)cc3)cc2)[C@@]12C(=O)Nc1ccc(I)cc12 ; retrieve measured composite z-score.
**A:** 1.17
